So I've got a bunch of molecules here, and I need their IC50 values.
- study-target: PDGFRβ (Rattus norvegicus (Rat), UniProt Q05030)
- Sequence (Q05030 32-1097): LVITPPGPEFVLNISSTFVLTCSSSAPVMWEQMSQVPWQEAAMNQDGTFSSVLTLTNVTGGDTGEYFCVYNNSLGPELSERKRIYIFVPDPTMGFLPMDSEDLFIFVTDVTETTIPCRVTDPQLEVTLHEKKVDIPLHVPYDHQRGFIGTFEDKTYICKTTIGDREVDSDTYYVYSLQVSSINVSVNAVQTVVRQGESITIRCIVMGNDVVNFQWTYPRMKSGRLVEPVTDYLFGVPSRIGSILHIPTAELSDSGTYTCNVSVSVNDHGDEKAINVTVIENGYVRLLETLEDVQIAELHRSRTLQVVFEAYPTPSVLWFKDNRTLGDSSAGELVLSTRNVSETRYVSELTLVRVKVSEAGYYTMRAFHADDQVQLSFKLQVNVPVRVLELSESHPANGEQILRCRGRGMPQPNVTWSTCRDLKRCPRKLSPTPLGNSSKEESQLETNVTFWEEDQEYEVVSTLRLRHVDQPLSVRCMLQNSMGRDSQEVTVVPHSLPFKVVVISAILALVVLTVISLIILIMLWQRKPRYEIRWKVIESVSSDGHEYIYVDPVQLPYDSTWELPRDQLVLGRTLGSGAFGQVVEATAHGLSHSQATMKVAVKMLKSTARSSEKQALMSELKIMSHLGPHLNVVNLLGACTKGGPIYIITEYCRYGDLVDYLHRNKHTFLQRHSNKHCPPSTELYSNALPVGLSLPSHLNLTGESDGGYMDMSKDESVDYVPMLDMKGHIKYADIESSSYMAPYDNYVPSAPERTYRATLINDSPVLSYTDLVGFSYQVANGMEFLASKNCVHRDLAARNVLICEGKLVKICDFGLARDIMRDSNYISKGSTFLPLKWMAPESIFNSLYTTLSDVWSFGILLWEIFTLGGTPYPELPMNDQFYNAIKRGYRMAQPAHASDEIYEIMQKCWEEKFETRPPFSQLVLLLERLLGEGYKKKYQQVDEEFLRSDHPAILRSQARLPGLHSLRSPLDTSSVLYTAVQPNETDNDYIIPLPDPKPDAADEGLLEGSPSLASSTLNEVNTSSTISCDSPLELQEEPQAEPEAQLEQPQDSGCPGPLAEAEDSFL
- assay-summary: PDGFRβ Cellular Assay (PDGFRb P-Y751 HTRF in A10 cells stimulated with PDGF-BB)
- Type: cell-based
- measurement-context: read-out: PDGFR Cellular IC50

Past entries and their recorded results:
>>> reported_result("Cc1ncc(C(=O)NCCN2CC3CCC2CC3)cc1NC(=O)c1cnn2cc(-c3cnn(CC(N)=O)c3)sc12 [Example 150]")
"> 2000 nM"
>>> reported_result("Cc1ncc(C(=O)NCCNCCO)cc1NC(=O)c1cnn2cc(-c3cnn(C)c3)sc12 [Example 234]")
"> 3000 nM"
>>> reported_result("Cc1ncc(C(=O)NCCN2CCCC(F)(F)C2)cc1NC(=O)c1cnn2cc(-c3cnn(C)c3)sc12 [Example 123]")
"7.8 nM"
>>> reported_result("Cc1ncc(C(=O)NCCN2CC3CCC2C3)cc1NC(=O)c1cnn2cc(-c3cn(C)nc3C)sc12 (centres unmarked) [Example 212]")
"104 nM"
>>> reported_result("COCCn1cc(-c2cn3ncc(C(=O)Nc4cc(NC(=O)CCN5C[C@H]6CC[C@@H]5C6)cnc4C)c3s2)cn1 [Example 94]")
"143 nM"
>>> reported_result("CCc1cc(C(=O)NCCN2CCCC23CCC3)sc1NC(=O)c1cnn2cc(-c3cnn(C)c3)sc12 [Example 205]")
"562 nM"
>>> reported_result("Cc1ncc(NC(=O)CN2C[C@@H](C)O[C@@H](C)C2)cc1NC(=O)c1cnn2cc(-c3cnn(C)c3)sc12 [Example 53]")
"4.3 nM"
>>> reported_result("Cc1ncc(C(=O)NCCN2CCCC2(C)C)cc1NC(=O)c1cnn2cc(-c3cncnc3)sc12 [Example 139]")
"164 nM"
>>> reported_result("Cc1ncc(NC(=O)CN2CCCC2(C)C)cc1NC(=O)c1cnn2cc(-c3cnn4c3COCC4)sc12 [Example 458]")
"2 nM"
>>> reported_result("Cc1cc(C(=O)NCCN2CCC(C)(C)CC2)sc1NC(=O)c1cnn2cc(-c3cnn(C)c3)sc12 [Example 183]")
"178 nM"

Lab note: each molecule below needs its IC50 filled in.
1. Cc1ncc(C(=O)NCCN2CCC3(CC3)C2)cc1NC(=O)c1cnn2cc(-c3ccccn3)sc12 [Example 160]
2. Cc1ncc(NC(=O)CN2CC(C)(C)C2)cc1NC(=O)c1cnn2cc(-c3nn(C)nc3C)sc12 [Example 445]
3. Cc1ncc(C(=O)NCCN2CCCOCC2)cc1NC(=O)c1cnn2cc(-c3cnn(C)c3)sc12 [Example 121]
4. Cc1ncc(C(=O)NCCN2CCCC2(C)C)cc1NC(=O)c1cnn2cc(-c3cnn(CCC(O)CO)c3)sc12 (centres unmarked) [Example 221]

1: 25.3 nM; 2: 2.2 nM; 3: 80.4 nM; 4: 1710 nM

* * *

- study-target: UniProt:Q05030
- assay-summary: PDGFRβ Cellular Assay (PDGFRb P-Y751 HTRF in A10 cells stimulated with PDGF-BB)
- Format: cell-based
- measurement-context: read-out: PDGFR Cellular IC50
observation-type: pIC50
Numbers only, as −log10 of the molar value.

Lab note: each compound below needs its pIC50 filled in.
1. COCCn1cc(-c2cn3ncc(C(=O)Nc4cc(C(=O)NCCN5CC6CCC5CC6)cnc4C)c3s2)cn1
2. Cc1ncc(NC(=O)OC[C@@H]2CCCN2C)cc1NC(=O)c1cnn2cc(-c3cccc4c3cnn4C)sc12
3. Cc1ncc(NC(=O)CN2[C@H](C)COC[C@@H]2C)cc1NC(=O)c1cnn2cc(-c3cnn(C)c3)sc12
4. COc1ncccc1-c1cn2ncc(C(=O)Nc3cc(NC(=O)CN4C[C@@H](CO)OC(C)(C)C4)cnc3C)c2s1

1: 7.14; 2: 7.88; 3: 7.04; 4: 8.01

Lab note: each compound below needs its pIC50 filled in.
1. Cc1ncc(NC(=O)CNCC(C)C)cc1NC(=O)c1cnn2cc(-c3cnn4c3CCC4)sc12
2. COCCn1cc(-c2cn3ncc(C(=O)Nc4cc(NC(=O)CN5C6CCC5CC6)cnc4C)c3s2)cn1
3. Cc1ncc(NC(=O)CN2CC(C)(C)C2)cc1NC(=O)c1cnn2cc(-c3cnn(CC(C)O)c3)sc12 (stereo not shown)
4. Cc1ncc(NC(=O)CN2CCC(F)(F)CC2)cc1NC(=O)c1cnn2cc(-c3cnn(C)c3)sc12
5. COc1ncccc1-c1cn2ncc(C(=O)Nc3cc(NC(=O)CN4CC(C)(C)C4)cnc3C)c2s1

[8.15, 8.19, 7.96, 8.36, 8.80]

Lab note: each compound below needs its pIC50 filled in.
1. COc1ncccc1-c1cn2ncc(C(=O)Nc3cc(NC(=O)C4CCCCN4C(C)C)cnc3C)c2s1 (stereo not shown)
2. COc1ncccc1-c1cn2ncc(C(=O)Nc3cc(NC(=O)CN4CC5(COC5)C4)cnc3C)c2s1
3. Cc1cc(C(=O)NCCN2CCCC2(C)C)sc1NC(=O)c1cnn2cc(-c3ccn(C)n3)sc12
4. Cc1ncc(C(=O)NCCN2CC3(CCC3)C2)cc1NC(=O)c1cnn2cc(-c3cnn(C)c3)sc12
5. Cc1ncc(NC(=O)CCN2CCCC2(C)C)cc1NC(=O)c1cnn2cc(-c3ccnn3C)sc12
6. Cc1ncc(NC(=O)CN2CCC3(CC3)C2)cc1NC(=O)c1cnn2cc(-c3cnn(CCO)c3)sc12
7. COCCn1cc(-c2cn3ncc(C(=O)Nc4cc(NC(=O)CCC5CCCN5C)cnc4C)c3s2)cn1 (stereo not shown)

1. 8.27
2. 8.14
3. 6.46
4. 6.87
5. 7.97
6. 7.69
7. 6.53

* * *

- study-target: Tb-labeled inactive PDGFRβ (Homo sapiens (Human))
- Sequence (P09619 33-1106): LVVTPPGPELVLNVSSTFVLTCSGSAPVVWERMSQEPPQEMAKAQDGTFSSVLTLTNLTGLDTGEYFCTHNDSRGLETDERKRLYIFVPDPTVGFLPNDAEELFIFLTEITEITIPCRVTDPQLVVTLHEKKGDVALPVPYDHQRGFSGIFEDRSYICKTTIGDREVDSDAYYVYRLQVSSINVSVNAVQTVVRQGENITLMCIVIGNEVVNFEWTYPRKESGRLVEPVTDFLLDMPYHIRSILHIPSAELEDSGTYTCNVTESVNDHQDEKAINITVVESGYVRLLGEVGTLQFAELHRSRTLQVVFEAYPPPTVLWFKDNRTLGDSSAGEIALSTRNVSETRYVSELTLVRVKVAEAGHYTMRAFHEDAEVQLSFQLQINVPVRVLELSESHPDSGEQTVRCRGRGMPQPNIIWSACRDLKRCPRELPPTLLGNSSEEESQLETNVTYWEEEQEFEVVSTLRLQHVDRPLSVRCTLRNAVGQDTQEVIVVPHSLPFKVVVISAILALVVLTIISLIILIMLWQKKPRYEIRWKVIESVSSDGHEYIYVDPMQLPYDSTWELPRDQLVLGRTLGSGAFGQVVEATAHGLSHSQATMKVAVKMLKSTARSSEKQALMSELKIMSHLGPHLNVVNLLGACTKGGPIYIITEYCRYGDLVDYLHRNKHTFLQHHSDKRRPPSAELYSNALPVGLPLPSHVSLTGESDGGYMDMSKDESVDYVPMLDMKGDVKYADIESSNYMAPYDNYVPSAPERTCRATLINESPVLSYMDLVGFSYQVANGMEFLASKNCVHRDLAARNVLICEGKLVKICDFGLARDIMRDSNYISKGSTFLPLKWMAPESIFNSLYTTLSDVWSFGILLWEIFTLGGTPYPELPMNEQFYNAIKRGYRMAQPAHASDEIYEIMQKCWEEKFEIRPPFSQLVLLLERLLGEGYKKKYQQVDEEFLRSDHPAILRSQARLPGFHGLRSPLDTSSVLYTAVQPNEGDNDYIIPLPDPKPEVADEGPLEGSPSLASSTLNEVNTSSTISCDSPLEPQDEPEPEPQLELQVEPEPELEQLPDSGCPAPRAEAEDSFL
- assay-summary: PDGFRβ LanthaScreen Assay
- measurement-context: read-out: PDGFR Lantha IC50
observation-type: pIC50
Answers are plain numbers, as −log10 of the molar value.

Past entries and their recorded results:
>>> reported_result("COc1ncccc1-c1cn2ncc(C(=O)Nc3cc(NC(=O)C[C@H]4CCCN4C(C)C)cnc3C)c2s1 [Example 309]")
8.82
>>> reported_result("Cc1ncc(NC(=O)OC[C@@H]2CCCN2C)cc1NC(=O)c1cnn2cc(-c3cnn(C)c3)sc12 [Example 243]")
7.88
>>> reported_result("Cc1ncc(NC(=O)CN2C[C@H](C)O[C@@H](C)C2)cc1NC(=O)c1cnn2cc(-c3cc[nH]n3)sc12 (relative stereo) [Example 374]")
8.40
>>> reported_result("COCCn1cc(-c2cn3ncc(C(=O)Nc4cc(NC(=O)CN5CCCCCC5)cnc4C)c3s2)cn1 [Example 339]")
8.52

Lab note: each compound below needs its pIC50 filled in.
1. Cc1ncc(NC(=O)CCN2CCCC2(C)C)cc1NC(=O)c1cnn2cc(-c3ccn(C)n3)sc12 [Example 12]
2. Cc1ncc(C(=O)NC2CN(C(C)(C)C)C2)cc1NC(=O)c1cnn2cc(-c3cnn(C)c3)sc12 [Example 237]

1. 8.48
2. 7.24

Lab note: each compound below needs its pIC50 filled in.
1. Cc1ncc(NC(=O)C2CN(C(C)C)C2)cc1NC(=O)c1cnn2cc(-c3cn(C)nc3C)sc12 [Example 354]
2. Cc1ncc(NC(=O)CC2CN(C)C2)cc1NC(=O)c1cnn2cc(-c3cnn4c3CCC4)sc12 [Example 427]
3. Cc1ncc(C(=O)NCCN2CC3CCC2CC3)cc1NC(=O)c1cnn2cc(-c3cccnc3)sc12 [Example 149]

1. 8.37
2. 6.83
3. 8.30

Lab note: each compound below needs its pIC50 filled in.
1. Cc1ncc(NC(=O)CN2CC3(CCOCC3)C2)cc1NC(=O)c1cnn2cc(-c3cnn4c3OCCC4)sc12 [Example 406]
2. Cc1ncc(C(=O)NCCN2CC3CCC2C3)cc1NC(=O)c1cnn2cc(-c3cnn(C)c3C)sc12 (stereo not drawn) [Example 210]
3. Cc1ncc(C(=O)NCCN2CCCC2(C)C)cc1NC(=O)c1cnn2cc(-c3cccc(C(=O)O)c3)sc12 [Example 134]

1. 8.64
2. 8.59
3. 7.86

* * *

- study-target: His6-TEV-PDGFRβ (557-1016) (Homo sapiens (Human), UniProt P09619)
observation-type: pIC50
Numbers only, as −log10 of the molar value.

Past entries and their recorded results:
>>> reported_result("Cc1ccc(-c2cn3ncc(C(=O)Nc4cc(C(=O)NCCN5CCCC5(C)C)cnc4C)c3s2)cn1")
8.85
>>> reported_result("Cc1ncc(NC(=O)C[C@H]2CCN(C(C)C)C2)cc1NC(=O)c1cnn2cc(-c3cnn(C)c3)sc12")
8.52
>>> reported_result("Cc1ncc(NC(=O)CN2CC(C)(C)C2)cc1NC(=O)c1cnn2cc(-c3c(C)noc3C)sc12")
9.10
>>> reported_result("COc1ncc(-c2cn3ncc(C(=O)Nc4cc(NC(=O)CN5CC(C)(C)C5)cnc4C)c3s2)c(OC)n1")
9.30
>>> reported_result("COCCn1cc(-c2cn3ncc(C(=O)Nc4cc(NC(=O)C5CN(C(C)C)C5)cnc4C)c3s2)cn1")
9.22
>>> reported_result("CC[C@@H]1CN(CC(=O)Nc2cnc(C)c(NC(=O)c3cnn4cc(-c5cnn(C)c5)sc34)c2)CCO1")
9.15
>>> reported_result("Cn1cc(-c2cn3ncc(C(=O)Nc4sc(C(=O)NCCN5CCCC56CCC6)cc4C#N)c3s2)cn1")
5.45

Now look at this one.
Supply measured pIC50 of `COCCn1nc(C)c(-c2cn3ncc(C(=O)Nc4cc(NC(=O)CCN5CCC6(CC6)C5)cnc4C)c3s2)c1C` in your reply.
9.10
